Tested on: NIH3T3
measurement_description: Cytotoxic Profiling of Annotated Libraries Using Quantitative High-Throughput Screening (AID 1296008); further: on the % scale 0 is the no-effect control and ±100 the full control effect; nearly all actives have a fitted effect of over 60% in size
measurement_context: Five cell lines viability, CellTiter-Glo ATP luminescence, 48-72 h; stronger effect = lower value
Protocol: Cell-based phenotypic screening is a commonly used approach to discover biological pathways, novel drug targets, chemical probes and high-quality hit-to-lead molecules. […] A pintool (Kalypsys) was used to transfer 23 nL of compound solution to the 1536-well assay plates. […] Plates were left at room temperature for 10 min before imaging the ATP-coupled luminescence using a ViewLux microplate imager (PerkinElmer, Waltham, MA).
Inconclusive results are not listed.
max response values by entry

molecule	unit_of_measure	max response
CC(C)[C@@H]1C(=O)N(S(C)(=O)=O)[C@@H]2CCN(C(=O)/C=C/CN3CCCCC3)[C@H]21	%	1.85
N#Cc1cc(F)cc(-c2nc(-c3ccccn3)no2)c1	%	-10.9
COc1ccc(/C=C/C(=O)O[C@@H]2[C@@H](O)[C@H](C)O[C@@H](O[C@H]3[C@@H]4C=CO[C@@H](O[C@H]5O[C@@H](CO)[C@H](O)[C@@H](O)[C@@H]5O)[C@@H]4[C@@]4(CO)O[C@@H]34)[C@@H]2OC(C)=O)cc1	%	1.61
C[C@@H]1O[C@@H](O[C@H]2[C@@H](OC(=O)[C@]34CCC(C)(C)CC3C3=CCC5[C@@]6(C)C[C@H](O)[C@H](O[C@@H]7O[C@H](C(=O)O)[C@@H](O)[C@H](O)[C@H]7O)[C@@](C)(C(=O)O)C6CC[C@@]5(C)[C@]3(C)CC4)OC[C@H](O)[C@@H]2O)[C@H](O)[C@H](O)[C@H]1O[C@@H]1OC[C@@H](O)[C@H](O)[C@H]1O (stereo partly drawn)	%	-0.698
COC(=O)N(C)c1c(N)nc(-c2nn(Cc3ccccc3F)c3ncccc23)nc1N	%	0.88
CC1=CC(=O)C(=C(C)C)CC2C1CCC2(C)O (stereo not drawn)	%	-2.64
CCC(O)C(C)C1CCC(C(C)C(=O)O)O1 (stereo not drawn)	%	2.92
C=CC1C(OC2OC(CO)C(O)C(O)C2O)OC=C(C(=O)OC)C1CC(=O)OCC1C(C)C(O)CC1C(CO)COC(=O)CC1C(C(=O)O)=COC(OC2OC(CO)C(O)C(O)C2O)/C1=C\C (stereo not drawn)	%	-19.3
COC(=O)c1cc(OC)c(O[C@@H]2O[C@@H](C)[C@H](O)[C@@H](O)[C@H]2O)c(OC)c1	%	2.7
C[C@@H]([C@@H](O)c1ccc(O)cc1)N1CCC(O)(c2ccccc2)CC1	%	1.49
COc1ccc2c(OC)c3ccoc3nc2c1OC	%	-9.34
CC(C)(O)/C=C/CC(C)(O)C1C(O)CC2(C)C3CCC4C(C)(C)C(=O)CCC4(C)C3CCC12C (stereo not drawn)	%	-0.144
CC(C)=CCC[C@](C)(O[C@@H]1O[C@H](CO[C@@H]2O[C@H](CO)[C@@H](O)[C@H](O)[C@H]2O)[C@@H](O)[C@H](O)[C@H]1O)C1CC[C@]2(C)[C@@H]1[C@H](O)CC1[C@@]3(C)CC[C@H](O[C@@H]4O[C@H](CO)[C@@H](O)[C@H](O)[C@H]4O[C@@H]4O[C@H](CO)[C@@H](O)[C@H](O)[C@H]4O)C(C)(C)[C@@H]3CC[C@]12C (stereo partly drawn)	%	4.71

====

Tested on: OV90
measurement_description: Primary qHTS to identify gynecologic anti-cancer compounds using libraries of approved drugs and bioactive compounds (AID 1345084); further: on the % scale 0 is the no-effect control and ±100 the full control effect; nearly all actives have a fitted effect of over 55% in size
measurement_context: Gynecologic cancer cell panel viability, ATPlite luminescence, 48 h; series mostly up to 57.5 µM
Records with an inconclusive call do not appear. Calls of active or inactive are those of the source. Calls follow the shape of the dose curve; as a rule, active = well fitted cell-killing curve with a large enough effect; inconclusive = small, poorly fitted or top-dose-only effect, or effect the other way; inactive = flat fitted curve, though single readings scatter.

compound	activity change, negative = cytotoxicity
Cc1ccccc1NC(=O)Nc1ccc(CC(=O)N(C)[C@@H](CC(C)C)C(=O)NCC[C@H](NC(=O)[C@@H]2CCCN2S(=O)(=O)c2cc(Cl)cc(Cl)c2)C(=O)O)cc1	inactive
C=C1C(=O)O[C@@H]2C[C@H](C)[C@@]3(O)C=C(C(C)=O)[C@]4(CC3C[C@H]12)C(=O)O[C@H]1C[C@@H](C)C(CCC(C)=O)=CC[C@H]14 (stereo partly drawn)	inactive
CC(C)=CCC[C@](C)(O[C@@H]1O[C@H](CO[C@@H]2O[C@H](CO)[C@@H](O)[C@H](O)[C@H]2O)[C@@H](O)[C@H](O)[C@H]1O)C1CC[C@]2(C)[C@@H]1[C@H](O)CC1[C@@]3(C)CC[C@H](O[C@@H]4O[C@H](CO)[C@@H](O)[C@H](O)[C@H]4O[C@@H]4O[C@H](CO)[C@@H](O)[C@H](O)[C@H]4O)C(C)(C)[C@@H]3CC[C@]12C (stereo partly drawn)	2.46% [at 11.6 µM] (inactive)
C/C(=C\CCC1(C)C2CCC(C2)C1(C)O)C(=O)O (stereo not drawn)	inactive
C[C@@H]([C@@H](O)c1ccc(O)cc1)N1CCC(O)(c2ccccc2)CC1	inactive
Fc1ccc2nc(CCC#Cc3ccccn3)cn2c1	inactive
CC(O)CCC1C(CO[C@@H]2O[C@H](CO)[C@@H](O)[C@H](O)[C@H]2O)CC(O)CC1(C)C (stereo partly drawn)	inactive
CC(C)[N+]1(C)C2CCC1CC(OC(=O)C(CO)c1ccccc1)C2 (stereo not drawn)	inactive
CC(C)(C)OC(=O)N1CCC(OCc2nc(-c3ccncc3)no2)CC1	inactive
CC(C)[C@@](C)(O)[C@@H]1CN(c2nc(-c3[nH]nc4ncccc34)c(F)cc2Cl)CCN1	inactive
CC1(C)CC2=C3C=CC4C5(C)CCC(O)C(C)(C)C5CCC4(C)C3(C)CCC2(C)C(O)C1 (stereo not drawn)	inactive
COc1cc2ncnc(Nc3ccc(F)c(Cl)c3)c2cc1NC(=O)/C=C/CN1CCCCC1	inactive
C[C@@H]1O[C@@H](O[C@H]2[C@H](OC(=O)[C@]34CCC(C)(C)C[C@H]3C3=CCC5[C@@]6(C)C[C@H](O)[C@H](O[C@@H]7O[C@H](CO)[C@@H](O)[C@H](O)[C@H]7O)[C@@](C)(CO)C6[C@H](O)C[C@@]5(C)[C@]3(C)C[C@H]4O)OC[C@H](O)[C@@H]2O)[C@H](O)[C@H](O)[C@H]1O[C@@H]1OC[C@@H](O)[C@H](O[C@H]2OC[C@](O)(CO)[C@H]2O)[C@H]1O (stereo partly drawn)	-6.86% [at 6.55 µM] (inactive)

====

measurement_description: P-glycoprotein substrates identified in KB-8-5-11 adenocarcinoma cell line, qHTS therapeutic library screen (AID 1346987); further: nearly all actives have a fitted effect of over 65% in size
measurement_context: KB-8-5-11 (P-gp overexpressing) viability, CellTiter-Glo, 72 h; series mostly up to 44.5 µM
Procedure: The ATP-binding cassette transporters P-glycoprotein (P-gp) is known to limit brain penetration of many chemotherapy drugs. […] All cell lines were plated into 1536-well plates at 500 cells/well in 5 uL media. […] CellTiter-Glo reagent (Promega) was dispensed into the wells, incubated for 5 min and luminescence was read on a ViewLux instrument (Perkin-Elmer). […]
Records with an inconclusive call do not appear. The source made the active and inactive calls. Calls come from the whole dose curve; as a rule, active = well fitted inhibition curve with a large enough effect; inconclusive = small, poorly fitted or top-dose-only effect; inactive = flat fitted curve, though single readings scatter.
Possible outcomes: active, inactive

molecule	category_label
COc1ccc(N(C)c2nc(C)nc3ccccc23)cc1	active
CC(=O)O[C@@H]1[C@@H](CO)O[C@@](CO)(O[C@H]2O[C@H](COC(=O)/C=C/c3ccccc3)[C@@H](O)[C@H](O)[C@H]2O)[C@H]1O	inactive
CC(C)C(C#N)O[C@@H]1O[C@H](CO[C@@H]2O[C@@H](C)[C@H](O)[C@@H](O)[C@H]2O)[C@@H](O)[C@H](O)[C@H]1O (stereo partly drawn)	inactive
CC1CC(=O)C2=C(CCC3(O)C(O)c4c(O)cccc4C(=O)C23O)C1 (stereo not drawn)	inactive
C=C1C(=O)O[C@@H]2C[C@H](C)[C@@]3(O)C=C(C(C)=O)[C@]4(CC3C[C@H]12)C(=O)O[C@H]1C[C@@H](C)C(CCC(C)=O)=CC[C@H]14 (stereo partly drawn)	inactive
COc1cc(OC)c(/C=C/S(=O)(=O)Cc2ccc(OC)c(NCC(=O)O)c2)c(OC)c1	active
CC(C)c1cc2c(c(O)c1O)[C@@]13CCCC(C)(C)[C@@H]1[C@H](OC3=O)C2=O	inactive
CN1c2ccccc2C(=O)N2CCC3c4ccccc4NC3C21 (stereo not drawn)	active

====

System: PA-1
measurement_description: Primary qHTS to identify gynecologic anti-cancer compounds using libraries of approved drugs and bioactive compounds (AID 1345084); further: on the % scale 0 is the no-effect control and ±100 the full control effect; nearly all actives have a fitted effect of over 55% in size
measurement_context: Gynecologic cancer cell panel viability, ATPlite luminescence, 48 h; series mostly up to 57.5 µM
Inconclusive results are not listed. The source made the active and inactive calls. Calls follow the shape of the dose curve; as a rule, active = well fitted cell-killing curve with a large enough effect; inconclusive = small, poorly fitted or top-dose-only effect, or effect the other way; inactive = flat fitted curve, though single readings scatter.

molecule	activity change, negative = cytotoxicity
C[C@@H]1O[C@@H](O[C@@H]2[C@@H](O)[C@@H](O[C@]3(CO)O[C@H](CO)[C@@H](O)[C@@H]3OC(=O)/C=C/c3ccc(O)cc3)O[C@H](CO)[C@H]2OC(=O)/C=C/c2ccc(O)cc2)[C@H](O)[C@H](O)[C@H]1O[C@@H]1O[C@@H](C)[C@H](O[C@@H]2OC[C@](O)(CO)[C@H]2O)[C@@H](O)[C@H]1O	32.6% [at 11.6 µM] (inactive)
CC1(C)CCC2(C(=O)OC3OC(CO)C(O)C(O)C3O)CCC3(C)C(=CCC4C5(C)CCC(OC6OC(C(=O)O)C(OC7OC(CO)C(O)C(O)C7O)C(OC7OC(CO)C(O)C(O)C7O)C6O)C(C)(C)C5CCC43C)C2C1 (stereo not drawn)	16.1% [at 11.6 µM] (inactive)
CC1OC(OC2C(C)OC(OC3C(O)C(CO)OC(O[C@H]4CC[C@@]5(C)C(CC[C@]6(C)C5CC=C5C7[C@@H](C)[C@H](C)CC[C@]7(C(=O)O)CC[C@]56C(=O)O)C4(C)C)C3O)C(O)C2O)C(O)C(O)C1O (stereo partly drawn)	-0.273% [at 11.6 µM] (inactive)
CC(=O)N[C@H]1[C@H](O[C@H]2CC[C@@]3(C)C(CC[C@]4(C)C3CC=C3[C@@H]5CC(C)(C)CC[C@]5(C(=O)OC5OCC(O)C(O)C5O)CC[C@]34C)C2(C)C)O[C@H](COC2OC(C)C(O)C(OC3OC(C)C(O)C(O)C3O)C2O)[C@@H](O)[C@@H]1O (stereo partly drawn)	5.97% [at 11.6 µM] (inactive)
C[C@@H]1O[C@@H](O[C@@H]2[C@@H](O[C@@H]3O[C@@H](C)[C@H](O[C@@H]4OC[C@H](O)[C@H](O[C@@H]5OC[C@@H](O)[C@H](O)[C@H]5O)[C@H]4O)[C@@H](O[C@@H]4OC[C@](O)(CO)[C@H]4O)[C@H]3O)[C@H](OC(=O)[C@]34CCC(C)(C)C[C@H]3C3=CCC5[C@@]6(C)C[C@H](O)[C@H](O[C@@H]7O[C@H](CO[C@@H]8OC[C@H](O)[C@H](O)[C@H]8O)[C@@H](O)[C@H](O)[C@H]7O)C(C)(C)C6CC[C@@]5(C)[C@]3(C)C[C@H]4O)OC[C@H]2O)[C@H](O)[C@H](O)[C@H]1O (stereo partly drawn)	18.2% [at 6.55 µM] (inactive)
CC12CCC(=O)C=C1C(O)CC1C2C(O)CC2(C)C1CC[C@]2(O)C(=O)CO (stereo partly drawn)	-1.22% [at 11.6 µM] (inactive)
CC1(C)CC[C@@]2(C(=O)O[C@@H]3O[C@H](CO)[C@@H](O)[C@H](O)[C@H]3O)C(C1)C1=CCC3[C@@]4(C)CC[C@@H](O[C@@H]5O[C@H](C(=O)O)[C@@H](O[C@@H]6OC[C@@H](O)[C@H](O)[C@H]6O)[C@H](O[C@@H]6OC[C@](O)(CO)[C@H]6O)[C@H]5O)C(C)(C)C4CC[C@@]3(C)[C@]1(C)C[C@H]2O (stereo partly drawn)	-34.8% [at 11.6 µM] (inactive)
CC1OC(OC2C(CO)OC(OCC3OC(OC(=O)C45CCC(C)(C)CC4C4=CCC6C7(C)CCC(OC8OC(CO)C(O)C(OC9OC(CO)C(O)C(O)C9O)C8O)C(C)(C)C7CCC6(C)C4(C)CC5)C(O)C(O)C3O)C(O)C2O)C(O)C(O)C1OC1OC(CO)C(O)C(O)C1O (stereo not drawn)	2.62% [at 6.55 µM] (inactive)
C=C1CC[C@@H]2[C@@](C)(CO[C@@H]3O[C@H](CO)C(O)[C@H](O)C3O)[C@H](O)CC[C@@]2(C)[C@@H]1CC/C(C)=C/CO (stereo partly drawn)	7% [at 11.6 µM] (inactive)
C/C=C(\C)C(=O)OCC1OC(OC2OC(COC(=O)/C(C)=C/C)C(OC3OC(CO)C(OC(=O)/C(C)=C/C)C(OC(=O)/C(C)=C/C)C3O)C(O)C2O)C(O)C(O)C1OC1OC(CO)C(OC(=O)/C(C)=C/C)C(OC(=O)/C(C)=C/C)C1O (stereo not drawn)	0.651% [at 11.6 µM] (inactive)
C[C@@H]1O[C@@H](O[C@@H]2[C@@H](O)[C@H](O[C@H]3[C@H](O[C@H]4CC[C@@]5(C)C(CC[C@]6(C)C5CC=C5[C@@H]7CC(C)(C)CC[C@]7(C(=O)O[C@@H]7O[C@H](CO)[C@@H](O)[C@H](O)[C@H]7O[C@@H]7O[C@@H](C)[C@H](O[C@@H]8O[C@@H](C)[C@H](O)[C@@H](O)[C@H]8O)[C@@H](O)[C@H]7O)CC[C@]56C)[C@@]4(C)CO)O[C@H](C(=O)O)[C@@H](O)[C@@H]3O)O[C@H](CO)[C@H]2O)[C@H](O)[C@H](O)[C@H]1O (stereo partly drawn)	2.55% [at 6.55 µM] (inactive)
CC(=O)N[C@@H](CCCCN)C(=O)N(C)[C@@H](CC(C)C)C(=O)N[C@H](C(=O)N(C)[C@@H](Cc1ccccc1)C(=O)N[C@H](Cc1ccccc1)C(N)=O)C(C)C	7.96% [at 6.55 µM] (inactive)
C[C@@H]1O[C@@H](O[C@H]2[C@H](O)[C@@H](C(=O)O)O[C@@H](O[C@H]3CC[C@@]4(C)C(CC[C@]5(C)C4CC=C4C6CC(C)(C)CC[C@]6(C(=O)O)CC[C@]45C)C3(C)C)[C@@H]2O[C@@H]2OC[C@@H](O)[C@H](O)[C@H]2O)[C@H](O)[C@H](O)[C@H]1O (stereo partly drawn)	4.01% [at 11.6 µM] (inactive)
